# assayed system: humane Tyrosinase (Homo sapiens, UniProt P14679)
# measurement description: Enzyme test: conversion of L-DOPA to L-dopaquinone by human tyrosinase, MBTH detection, absorption at 490 nm
# Format: biochemical
# applied conditions: Inhibition der Tyrosinaseaktivität, substrate L-DOPA
Listed next: entries and their corresponding log10 of EC50.
All values: base-10 log of EC50 in µM.

Reference set (2 entries):
* O=C(O)c1ccccc1 [Natrium Benzoat] | 3.16
* O=C(OCc1ccccc1)c1ccccc1 [Benzyl benzoat] | 3.00

Need log10 of EC50, item O=C(C=Cc1ccccc1)OCc1ccccc1 [Benzyl cinnamat] 2.41

Now this one: O=C(/C=C/c1ccc(O)cc1)NCCc1c[nH]c2ccc(O)cc12 2.71

Now this one: CCCc1c[nH]c(=S)[nH]c1=O 2.69

Now this one: O=C(O)/C=C/c1c[nH]c2ccccc12 [(E)-3-(1H-indol-3-yl)acrylsäure] 2.92

Now this one: COc1ccc(C(=O)/C=C(\O)c2ccc(C(C)(C)C)cc2)cc1 3.19

Now this one: O=C(O)/C=C/c1ccc(O)c(O)c1 [(E)-3-(3,4-dihydroxyphenyl)acrylsäure] 3.14

Now this one: CCCCCCOC(=O)c1ccccc1O [Hexyl 2-hydroxybenzoat] 3.63

Now this one: O=C(O)/C=C/c1ccco1 [(E)-3-(furan-2-yl)acrylsäure] 2.22

Now this one: CCOC(=O)C=Cc1ccccc1 [Ethyl cinnamat] 3.41

Now this one: O=C(OC1CCCCC1)c1ccccc1O [Cyclohexyl 2-hydroxybenzoat] 2.74

----------
# assayed system: humane Tyrosinase (Homo sapiens)
# Sequence (P14679 19-529): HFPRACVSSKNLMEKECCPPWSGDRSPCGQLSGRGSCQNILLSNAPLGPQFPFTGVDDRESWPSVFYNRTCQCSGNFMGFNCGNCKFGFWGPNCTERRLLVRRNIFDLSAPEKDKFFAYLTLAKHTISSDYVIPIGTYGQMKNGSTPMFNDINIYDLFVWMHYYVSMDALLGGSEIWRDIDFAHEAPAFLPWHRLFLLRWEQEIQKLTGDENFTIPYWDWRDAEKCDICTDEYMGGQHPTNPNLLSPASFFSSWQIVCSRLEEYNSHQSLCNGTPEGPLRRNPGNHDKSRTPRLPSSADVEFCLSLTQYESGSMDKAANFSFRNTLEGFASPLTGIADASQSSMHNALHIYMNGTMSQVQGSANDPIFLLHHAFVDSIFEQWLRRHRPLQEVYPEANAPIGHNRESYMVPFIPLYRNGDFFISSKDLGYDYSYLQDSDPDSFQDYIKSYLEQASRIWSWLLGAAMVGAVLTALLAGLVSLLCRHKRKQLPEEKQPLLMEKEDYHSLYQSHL
# measurement description: Enzyme test: conversion of L-DOPA to L-dopaquinone by human tyrosinase, MBTH detection, absorption at 490 nm
# applied conditions: Inhibition der Tyrosinaseaktivität, substrate L-DOPA
measured property: EC50
A complete answer gives the number followed by the unit.

• O=C(O)/C=C/c1ccncc1 [(E)-3-(pyridin-4-yl) acrylsäure] = 697 µM
• C/C=C/C=C/C(=O)O = 1530 µM
• O=CC=Cc1ccccc1 = 211 µM

--- query ---
Lab request: please report EC50 under test system humane Tyrosinase (Homo sapiens) for O=C(O)/C=C/c1cccnc1 [(E)-3-(pyridin-3-yl)acrylsäure] 634 µM
